- Test system: K562 CRISPRi cells
- protocol description: Constant region variant library pooled growth screen, K562
- Type: cell-based, human
- test parameters: sgRNA constant region variants; activity relative to the original, un-modified constant region cr995
Listed here: items and their measured Mean relative activity.
Answer as a number with no unit attached.

{"molecule": "cr022 (nucleic acid, listed as DNA, chemistry not fully specified) guide: GTTTAAGTGCTAAGCTGGAAACAGCATAGCAAGTTTAAATAAGGCTAGTCCGTTATCAACTTGAAAAAGTGGCACCGAGTCGGTGCT", "Mean relative activity": 1.058}

Lab note: measured Mean relative activity of cr449 (nucleic acid, listed as DNA, chemistry not fully specified) guide: GTTTAAGAGCTAAGCTGGAAACAGCATAGCAAGTTTAAATAAGCCTAGTGCGTTATCAACTTGAAAAAGTGGCAGCGAGTCGCTGCT was 0.7698
